# Tested on: Wnt activity (Wnt-responsive SP5 promoter luciferase reporter in SW480 cells)
# assay.notes: Wnt activity reporter assay: SW480 cells with SP5 promoter-driven firefly luciferase
# Type: cell-based
# run.conditions: Homo sapiens, 24 h after compound addition, read-out: Wnt inhibition
# Protocol: The above synthesized compounds were screened using the assay procedure for Wnt activity described below. […] Cultured SW480 cells bearing a reporter construct were distributed at approximately 10,000 cells per well into 384 well multiwell plates. […] Twenty-four hours after the addition of compound, reporter activity for luciferases was assayed, for example, by addition of the BrightGlo luminescence reagent (Promega) and the Victor3 plate reader (Perkin Elmer). […]
# True = IC50 below 1 µM (exclusive); False = IC50 at/above 1 µM

[ask] # TODO verify IC50 < 1 µM strictly for this compound: "Cc1cc2[nH]nc(C(=O)Nc3cccnc3)c2cc1-c1cccnc1"
[reply] False

[ask] # TODO verify IC50 < 1 µM strictly for this compound: "CC(C)(C)CN1CCC(NC(=O)c2n[nH]c3ccc(-c4cccnc4)cc23)CC1"
[reply] False

[ask] # TODO verify IC50 < 1 µM strictly for this compound: "O=C(NCCN1CCCCC1)c1n[nH]c2ccc(-c3cccnc3)cc12"
[reply] False

[ask] # TODO verify IC50 < 1 µM strictly for this compound: "NC1CN(c2cncc(-c3ccc4[nH]nc(C(=O)Nc5cncc(-c6cccc(F)c6)c5)c4c3)n2)C1"
[reply] False

[ask] # TODO verify IC50 < 1 µM strictly for this compound: "O=C(Nc1cccnc1)c1n[nH]c2ccc(-c3cncc(CN4CCS(=O)(=O)CC4)c3)cc12"
[reply] True

[ask] # TODO verify IC50 < 1 µM strictly for this compound: "O=C(NCCN1CCCC1)c1n[nH]c2ccc(-c3cccc(F)c3F)cc12"
[reply] False

[ask] # TODO verify IC50 < 1 µM strictly for this compound: "Cc1ccc(NC(=O)c2n[nH]c3ccc(-c4cncc(CN5CCCCC5)c4)cc23)cn1"
[reply] True

[ask] # TODO verify IC50 < 1 µM strictly for this compound: "CN1CCC(NC(=O)c2n[nH]c3ccc(-c4cccnc4)cc23)CC1"
[reply] False

[ask] # TODO verify IC50 < 1 µM strictly for this compound: "NC1CN(c2cncc(-c3ccc4[nH]nc(C(=O)Nc5cccc(F)c5)c4c3)n2)C1"
[reply] False

[ask] # TODO verify IC50 < 1 µM strictly for this compound: "Cc1cc2[nH]nc(C(=O)Nc3ccc(CN4CCCC4)cc3)c2cc1-c1cccnc1"
[reply] False

[ask] # TODO verify IC50 < 1 µM strictly for this compound: "CC(C)CN1CC(NC(=O)c2n[nH]c3ccc(-c4cncc(Cl)c4)cc23)C1"
[reply] False

[ask] # TODO verify IC50 < 1 µM strictly for this compound: "O=C(Nc1cccnc1)c1n[nH]c2ccc(-c3cncc(CN4CC5CC(C4)O5)c3)cc12"
[reply] True

[ask] # TODO verify IC50 < 1 µM strictly for this compound: "CN1CCN(c2ccc(NC(=O)c3n[nH]c4ccc(-c5cncc(NC(=O)c6c(F)cccc6F)c5)cc34)cn2)CC1"
[reply] True

[ask] # TODO verify IC50 < 1 µM strictly for this compound: "CC1CCN(Cc2cncc(-c3ccc4[nH]nc(C(=O)Nc5cccnc5)c4c3)c2)CC1"
[reply] True

[ask] # TODO verify IC50 < 1 µM strictly for this compound: "CN1CCC(NC(=O)c2n[nH]c3ccc(-c4cc(F)cc(F)c4)cc23)CC1"
[reply] False

[ask] # TODO verify IC50 < 1 µM strictly for this compound: "CN1CCC2(CC1)CC(NC(=O)c1n[nH]c3ccc(-c4cccc(F)c4F)cc13)C2"
[reply] False

[ask] # TODO verify IC50 < 1 µM strictly for this compound: "O=C(Nc1ccc(CN2CCCC2)cc1)c1n[nH]c2ccc(-c3cccc(F)c3F)cc12"
[reply] False

[ask] # TODO verify IC50 < 1 µM strictly for this compound: "O=C(N[C@@H]1C[C@@H]1c1ccccc1)c1n[nH]c2ccc(-c3cccnc3)cc12"
[reply] False

[ask] # TODO verify IC50 < 1 µM strictly for this compound: "O=C(NC1CCN(CCF)CC1)c1n[nH]c2ccc(-c3cncc4ccccc34)cc12"
[reply] False

[ask] # TODO verify IC50 < 1 µM strictly for this compound: "O=C(NCc1cc(F)cc(F)c1)c1n[nH]c2ccc(-c3cncc(CN4CCCCC4)c3)cc12"
[reply] False

[ask] # TODO verify IC50 < 1 µM strictly for this compound: "O=C(NC1CCN(CCF)CC1)c1n[nH]c2ccc(-c3cccc(F)c3F)cc12"
[reply] False

[ask] # TODO verify IC50 < 1 µM strictly for this compound: "CN1CCC(NC(=O)c2n[nH]c3ccc(-c4cncc(C(F)(F)F)c4)cc23)CC1"
[reply] False

[ask] # TODO verify IC50 < 1 µM strictly for this compound: "CC(C)CN1CC(NC(=O)c2n[nH]c3ccc(-c4cncc(C(F)F)c4)cc23)C1"
[reply] False

[ask] # TODO verify IC50 < 1 µM strictly for this compound: "CN1CCC2(CC1)CC(NC(=O)c1n[nH]c3ccc(-c4cncc(Cl)c4)cc13)C2"
[reply] False

[ask] # TODO verify IC50 < 1 µM strictly for this compound: "[2H]C([2H])([2H])Oc1ccc(NC(=O)c2n[nH]c3ccc(-c4cncc(CN5CCCCC5)c4)cc23)cn1"
[reply] True

[ask] # TODO verify IC50 < 1 µM strictly for this compound: "O=C(NCc1cccc(F)c1)c1n[nH]c2ccc(-c3cncc(CN4CCCCC4)c3)cc12"
[reply] False

[ask] # TODO verify IC50 < 1 µM strictly for this compound: "O=C(N[C@@H]1C[C@@H]1c1ccccc1)c1n[nH]c2ccc(-c3cncc(CN4CCCCC4)c3)cc12"
[reply] True

[ask] # TODO verify IC50 < 1 µM strictly for this compound: "Cc1ccc(-c2ccc3[nH]nc(C(=O)NCCCOC(C)C)c3c2)cn1"
[reply] False

[ask] # TODO verify IC50 < 1 µM strictly for this compound: "CC(C)CN1CC(NC(=O)c2n[nH]c3ccc(-c4cncc(F)c4)cc23)C1"
[reply] False

[ask] # TODO verify IC50 < 1 µM strictly for this compound: "O=C(NC1CC1)c1n[nH]c2ccc(-c3cc(F)cc(CN4CCCCC4)c3)cc12"
[reply] False

----------
Consider the following compounds; for each one, report its Conc (nM) of 100% TGF-β3 activity.
# System: primary human mesenchymal stem cells (hMSCs)
# assay.notes: Chondrogenesis assay in primary human mesenchymal stem cells, nodule count vs TGF-β3 positive control
# Type: cell-based
# run.conditions: 6 days, concentration required to induce chondrogenesis equivalent to TGF-β3 (10 ng/mL)
Note: unit nM is implicit; provide only the numeric part.

[ask] Value lookup for Conc (nM) of 100% TGF-β3 activity; key = Cc1ccc(NC(=O)c2n[nH]c3ccc(-c4cncc(CN5CCCCC5)c4)cc23)cn1 [Compound 65]
[reply] 900

[ask] Value lookup for Conc (nM) of 100% TGF-β3 activity; key = O=C(NC1CCCCC1)c1n[nH]c2ccc(-c3cncc(N4CCCC4)c3)cc12 [Compound 200]
[reply] 2700

[ask] Value lookup for Conc (nM) of 100% TGF-β3 activity; key = CN1CCN(c2ccc(NC(=O)c3n[nH]c4ccc(-c5cncc(NC(=O)c6cc(F)ccc6F)c5)cc34)cn2)CC1 [Compound 48]
[reply] 2700

[ask] Value lookup for Conc (nM) of 100% TGF-β3 activity; key = Cc1ncc(NC(=O)c2n[nH]c3ccc(-c4cccnc4)cc23)cn1 [Compound 97]
[reply] 2700

----------
# system.name: DYRK1A (Homo sapiens (Human))
# assay.notes: DYRK1A activity Tau assay: pSer396 Tau in SH-SY5Y cells by ELISA / western blot
# run.conditions: overnight (16-18 h) exposure
Consider the following molecules; for each one, report its EC50.
Note: unit nM is implicit; provide only the numeric part.

[ask] Value lookup for EC50; key = CC(C)CNC(=O)c1n[nH]c2ccc(-c3cccnc3)cc12 [Compound 1254]
[reply] 9

[ask] Value lookup for EC50; key = CN1CCC(NC(=O)c2n[nH]c3cc(F)c(-c4cccnc4)cc23)CC1 [Compound 1290]
[reply] 21

[ask] Value lookup for EC50; key = NC1CN(c2cncc(-c3ccc4[nH]nc(C(=O)Nc5cccc(F)c5)c4c3)n2)C1 [Compound 1318]
[reply] 6

[ask] Value lookup for EC50; key = O=C(NC1(c2ccccc2)CC1)c1n[nH]c2ccc(-c3cncc(CN4CCC(F)(F)C4)c3)cc12 [Compound 35]
[reply] 85

[ask] Value lookup for EC50; key = Cc1ncc(NC(=O)c2n[nH]c3ccc(-c4cccnc4)cc23)cn1 [Compound 97]
[reply] 556

[ask] Value lookup for EC50; key = O=C(NC1CCCCC1)c1n[nH]c2ccc(-c3cccnc3)cc12 [Compound 4]
[reply] 35

[ask] Value lookup for EC50; key = O=C(NC1CCN(CC(F)F)CC1)c1n[nH]c2ccc(-c3cncc(F)c3)cc12 [Compound 1298]
[reply] 28

[ask] Value lookup for EC50; key = CN1CC2(CCC(NC(=O)c3n[nH]c4ccc(-c5cncc(F)c5)cc34)CC2)C1 [Compound 1289]
[reply] 29

[ask] Value lookup for EC50; key = O=C(Nc1ccnc(C(F)(F)F)c1)c1n[nH]c2ccc(-c3cncc(CN4CCCCC4)c3)cc12 [Compound 80]
[reply] 36

[ask] Value lookup for EC50; key = O=C(Nc1cccc(C(F)(F)F)n1)c1n[nH]c2ccc(-c3cncc(CN4CCCCC4)c3)cc12 [Compound 62]
[reply] 5

[ask] Value lookup for EC50; key = O=C(NC1CCCC1)c1n[nH]c2ccc(-c3cncc(N4CCCC4)c3)cc12 [Compound 181]
[reply] 47

[ask] Value lookup for EC50; key = CN1CCC(NC(=O)c2n[nH]c3ccc(-c4cnccc4C(F)(F)F)cc23)CC1 [Compound 1340]
[reply] 2500

[ask] Value lookup for EC50; key = CN1CCC(NC(=O)c2n[nH]c3ccc(-c4ccccc4F)cc23)CC1 [Compound 16]
[reply] 335
